# ASSAY: Peptide stability in simulated intestinal fluid (SIF)
# Format: in vitro ADME
# CONDITION NOTES: pig, 37 °C, porcine pancreatin, pH 6.8, 1 h
Where a SMILES comes first, the peptide text is derived from it. Bridges are numbered along the chain shown (N, C = ends). [ ]: non-standard residue; d: D form. 2Nal = N[C@@H](Cc1ccc2ccccc2c1)C(=O)O; AEF = NCCOc1ccc(C[C@H](N)C(=O)O)cc1; 3Pal = N[C@@H](Cc1cccnc1)C(=O)O; αMeL = CC(C)C[C@](C)(N)C(=O)O; NMeK = CN[C@@H](CCCCN)C(=O)O; Orn = NCCC[C@H](N)C(=O)O; Dab = NCC[C@H](N)C(=O)O; βAla = NCCC(=O)O
PROPERTY: remaining at 1 h, 10 µM (%)
Expressed in %, but write only the number.

Solved cases (8 shown):
MOLECULE	UNITS LABEL	ENDPOINT RESULT
CC[C@H](C)[C@@H]1NC(=O)[C@@H]2CCCCNC(=O)CC[C@@H](C(=O)N[C@@H](CCN)C(=O)N[C@@H](Cc3cccnc3)C(=O)NC)NC(=O)CNC(=O)[C@H](Cc3ccc4ccccc4c3)NC(=O)[C@H](Cc3ccc(OCCN)cc3)NC(=O)[C@H](CCC(=O)N2)NC(=O)[C@H](CCC(N)=O)NC(=O)[C@H](Cc2c[nH]c3ccccc23)NC(=O)[C@H](C(C)C)NC1=O [Compound 68]	%	33
CNC(=O)[C@H](Cc1cccnc1)NC(=O)[C@H](CCN)NC(=O)[C@@H]1CCC(=O)NCCC[C@@H]2NC(=O)CC[C@H](NC(=O)[C@H](CCC(N)=O)NC(=O)[C@H](Cc3c[nH]c4ccccc34)NC(=O)CCNC2=O)C(=O)N[C@@H](Cc2ccc(OCCN)cc2)C(=O)N[C@@H](Cc2ccc3ccccc3c2)C(=O)N[C@@](C)(CC(C)C)C(=O)N1 [Compound 91] ([Orn][βAla]WQE[AEF][2Nal][αMeL]E[Dab][3Pal]-NHMe; lactam 1-9, N-5)	%	98
CNC(=O)[C@H](Cc1cccnc1)NC(=O)[C@H](CCN)NC(=O)[C@@H]1CCC(=O)NCCCC[C@@H]2NC(=O)CC[C@H](NC(=O)[C@H](CCC(N)=O)NC(=O)[C@H](Cc3c[nH]c4ccccc34)NC(=O)CCNC2=O)C(=O)N[C@@H](Cc2ccncc2)C(=O)N[C@@H](Cc2ccc3ccccc3c2)C(=O)N[C@@](C)(CC(C)C)C(=O)N1 [Compound 85]	%	103
CC(C)C[C@]1(C)NC(=O)[C@H](Cc2ccc3ccccc3c2)NC(=O)[C@H](Cc2ccc(OCCN)cc2)NC(=O)[C@@H]2CCNC(=O)CC[C@H](NC(=O)[C@H](CO)NC(=O)Cc3ccc(cc3)CNC(=O)CC[C@@H](C(=O)N[C@@H](CCN)C(=O)N[C@@H](Cc3cccnc3)C(N)=O)NC1=O)C(=O)N[C@@H](Cc1c[nH]c3ccccc13)C(=O)N[C@@H](CCC(N)=O)C(=O)N2 [Ref 122, reference compound]	%	73
CC[C@H](C)[C@@H]1NC(=O)[C@@H]2CCCCNC(=O)CC[C@@H](C(=O)NCCc3cccnc3)NC(=O)[C@](C)(C(C)C)NC(=O)[C@H](Cc3ccc4ccccc4c3)NC(=O)[C@H](Cc3ccc(OCCN)cc3)NC(=O)[C@H](CCC(=O)N2)NC(=O)[C@H](CCC(N)=O)NC(=O)[C@H](Cc2c[nH]c3ccccc23)NC(=O)[C@H](C(C)C)NC1=O [Compound 26]	%	97
CC[C@H](C)[C@@H]1NC(=O)[C@@H]2CCCCNC(=O)CC[C@@H](C(=O)N[C@@H](CCN)C(=O)N[C@@H](Cc3cccnc3)C(=O)NC)NC(=O)[C@](C)(CC(C)C)NC(=O)[C@H](Cc3ccc4ccccc4c3)NC(=O)[C@H](Cc3ccc(OCCN)cc3)NC(=O)[C@H](CCC(=O)N2C)NC(=O)[C@H](CCC(N)=O)NC(=O)[C@H](Cc2c[nH]c3ccccc23)NC(=O)[C@H](C(C)C)NC1=O [Compound 75]	%	96
CNC(=O)[C@H](Cc1cccnc1)NC(=O)[C@H](CCN)NC(=O)[C@@H]1CCC(=O)NCCCC[C@H]2C(=O)NCCC(=O)N[C@@H](Cc3c[nH]c4ccccc34)C(=O)N[C@@H](CCC(N)=O)C(=O)N[C@@H](CCC(=O)N2C)C(=O)N[C@@H](Cc2ccc(OCCN)cc2)C(=O)N[C@@H](Cc2ccc3ccccc3c2)C(=O)N[C@@](C)(CC(C)C)C(=O)N1 [Compound 80] ([NMeK][βAla]WQE[AEF][2Nal][αMeL]E[Dab][3Pal]-NHMe; lactam 1-9, N-5)	%	116
CC[C@H](C)[C@@H]1NC(=O)[C@@H]2CCCCNC(=O)CC[C@@H](C(=O)N3CCNC3C(=O)N[C@@H](Cc3cccnc3)C(=O)NC)NC(=O)[C@](C)(CC(C)C)NC(=O)[C@H](Cc3ccc4ccccc4c3)NC(=O)[C@H](Cc3ccc(OCCN)cc3)NC(=O)[C@H](CCC(=O)N2)NC(=O)[C@H](CCC(N)=O)NC(=O)[C@H](Cc2c[nH]c3ccccc23)NC(=O)[C@H](C(C)C)NC1=O (stereo partly shown) [Compound 72]	%	102

Input: For CC(C)C[C@]1(C)NC(=O)[C@H](Cc2ccc3ccccc3c2)NC(=O)[C@H](Cc2ccc(OCCN)cc2)NC(=O)[C@@H]2CCC(=O)N[C@H](CCCCNC(=O)CC[C@@H](C(=O)N[C@@H](CCN)C(=O)N[C@@H](Cc3cccnc3)C(N)=O)NC1=O)C(=O)N[C@@H]([C@@H](C)O)C(=O)N[C@@H](C(C)C)C(=O)N[C@@H](Cc1c[nH]c3ccccc13)C(=O)N[C@@H](CCC(N)=O)C(=O)N2 [Compound 1] , what is its reported remaining at 1 h, 10 µM?
Output: 23

Input: Looking for the measured remaining at 1 h, 10 µM of CNC(=O)[C@H](Cc1cccnc1)NC(=O)[C@H](Cc1cccnc1)NC(=O)[C@@H]1CCC(=O)NCCCC[C@@H]2NC(=O)CC[C@H](NC(=O)[C@H](CCC(N)=O)NC(=O)[C@H](Cc3c[nH]c4ccccc34)NC(=O)CCNC2=O)C(=O)N[C@@H](Cc2ccc(OCCN)cc2)C(=O)N[C@@H](Cc2ccc3ccccc3c2)C(=O)N[C@@](C)(CC(C)C)C(=O)N1 [Compound 87] , can you help?
Output: 1

====

// reported remaining at 4 h, 10 µM per item
# ASSAY: Peptide stability in simulated gastric fluid (SGF)
# Assay type: in vitro ADME
# CONDITION NOTES: pig, simulated gastric fluid (SGF) with porcine pepsin (3.2 g/L), pH 1.2, 10 µM, 37 °C, porcine pepsin, pH 1.2, 4 h; read-out: SGF (% remaining 4 h)
Where a SMILES comes first, the peptide text is derived from it. Bridges are numbered along the chain shown (N, C = ends). [ ]: non-standard residue; d: D form. 2Nal = N[C@@H](Cc1ccc2ccccc2c1)C(=O)O; AEF = NCCOc1ccc(C[C@H](N)C(=O)O)cc1; 3Pal = N[C@@H](Cc1cccnc1)C(=O)O; αMeL = CC(C)C[C@](C)(N)C(=O)O; Orn = NCCC[C@H](N)C(=O)O; Dab = NCC[C@H](N)C(=O)O; βAla = NCCC(=O)O
Write the number in % without appending the unit.

Answered examples (5):
COMPOUND	remaining at 4 h, 10 µM (%)
CNC(=O)[C@H](Cc1cccnc1)NC(=O)[C@H](CCN)NC(=O)[C@@H]1CCC(=O)NCCCC[C@@H]2NC(=O)CC[C@H](NC(=O)[C@H](CCC(N)=O)NC(=O)[C@H](Cc3c[nH]c4ccccc34)NC(=O)CCNC2=O)C(=O)N[C@@H](Cc2cccnc2)C(=O)N[C@@H](Cc2ccc3ccccc3c2)C(=O)N[C@@](C)(CC(C)C)C(=O)N1	97
CNC(=O)[C@H](Cc1cccnc1)NC(=O)[C@H](Cc1cccnc1)NC(=O)[C@@H]1CCC(=O)NCCCC[C@@H]2NC(=O)CC[C@H](NC(=O)[C@H](CCC(N)=O)NC(=O)[C@H](Cc3c[nH]c4ccccc34)NC(=O)CCNC2=O)C(=O)N[C@@H](Cc2ccc(OCCN)cc2)C(=O)N[C@@H](Cc2ccc3ccccc3c2)C(=O)N[C@@](C)(CC(C)C)C(=O)N1	89
CC(C)C[C@]1(C)NC(=O)[C@H](Cc2ccc3ccccc3c2)NC(=O)[C@H](Cc2ccc(OCCN)cc2)NC(=O)[C@@H]2CCC(=O)N[C@H](CCCCNC(=O)CC[C@@H](C(=O)N[C@@H](CCN)C(=O)N[C@@H](Cc3cccnc3)C(N)=O)NC1=O)C(=O)N[C@@H]([C@@H](C)O)C(=O)N[C@@H](C(C)C)C(=O)N[C@@H](Cc1c[nH]c3ccccc13)C(=O)N[C@@H](CCC(N)=O)C(=O)N2	97
CC[C@H](C)[C@@H]1NC(=O)[C@@H]2CCCCNC(=O)CC[C@@H](C(=O)NCC(=O)N[C@H](Cc3cccnc3)C(N)=O)NC(=O)[C@](C)(C(C)C)NC(=O)[C@H](Cc3ccc4ccccc4c3)NC(=O)[C@H](Cc3ccc(C)cc3)NC(=O)[C@H](CCC(=O)N2)NC(=O)[C@H](CCC(N)=O)NC(=O)[C@H](Cc2c[nH]c3ccccc23)NC(=O)[C@H](C(C)C)NC1=O	6
CNC(=O)[C@H](Cc1cccnc1)NC(=O)[C@H](CCN)NC(=O)[C@@H]1CCC(=O)NCCC[C@@H]2NC(=O)CC[C@H](NC(=O)[C@H](CCC(N)=O)NC(=O)[C@H](Cc3c[nH]c4ccccc34)NC(=O)CCNC2=O)C(=O)N[C@@H](Cc2ccc(OCCN)cc2)C(=O)N[C@@H](Cc2ccc3ccccc3c2)C(=O)N[C@@](C)(CC(C)C)C(=O)N1 [Compound 91] ([Orn][βAla]WQE[AEF][2Nal][αMeL]E[Dab][3Pal]-NHMe; lactam 1-9, N-5)	115

# evaluate next
Input: Would you mind telling me what remaining at 4 h, 10 µM value was observed for CNC(=O)[C@H](Cc1cccnc1)NC(=O)[C@H](CCN)NC(=O)[C@@H]1CCC(=O)NCCCC[C@@H]2NC(=O)CC[C@H](NC(=O)[C@H](CCC(N)=O)NC(=O)[C@H](Cc3c[nH]c4ccccc34)NC(=O)CCNC2=O)C(=O)N[C@@H](Cc2ccc(OCCN)cc2)C(=O)N[C@@H](Cc2ccc3ccccc3c2)C(=O)N[C@@](C)(CC(C)C)C(=O)N1 ?
Output: 103
